B1: POU domain, class 4, transcription factor 3, residues 185 to 256; numbered along this chain, Q15319 (parent)
chain: RELEAFAERFKQRRIKLGVTQADVGAALANLKIPGVGSLSQSTICRFESLTLSHNNMIALKPVLQAWLEEAE

- Variants of: B1
- measurement-notes: abundance fitness (aPCA) (normalised: wild type 0, dead -1); higher = more abundant; growth selection in yeast, the domain comes from the species named
- condition-summary: Homo sapiens
Criterion: abundance fitness meeting or surpassing -0.1. Met: true (1). Not met: false (0).

Examples from the recorded data:
[[record]]
variant_code = "A27K"
label_value = "false (0)"

[[record]]
variant_code = "K61F"
label_value = "false (0)"

[[record]]
variant_code = "L28F"
label_value = "false (0)"

[[record]]
variant_code = "G37Q"
label_value = "true (1)"

[[record]]
variant_code = "S40W"
label_value = "false (0)"


# bool: abundance fitness of V24H >= -0.1 false (0)

# bool: abundance fitness of N30V >= -0.1 false (0)
